Target: hAR (human androgen receptor) (Homo sapiens)
Construct: made in house; host or cells: baculovirus/Sf9 insect cells (crude extract)
Sequence (P10275 1-920): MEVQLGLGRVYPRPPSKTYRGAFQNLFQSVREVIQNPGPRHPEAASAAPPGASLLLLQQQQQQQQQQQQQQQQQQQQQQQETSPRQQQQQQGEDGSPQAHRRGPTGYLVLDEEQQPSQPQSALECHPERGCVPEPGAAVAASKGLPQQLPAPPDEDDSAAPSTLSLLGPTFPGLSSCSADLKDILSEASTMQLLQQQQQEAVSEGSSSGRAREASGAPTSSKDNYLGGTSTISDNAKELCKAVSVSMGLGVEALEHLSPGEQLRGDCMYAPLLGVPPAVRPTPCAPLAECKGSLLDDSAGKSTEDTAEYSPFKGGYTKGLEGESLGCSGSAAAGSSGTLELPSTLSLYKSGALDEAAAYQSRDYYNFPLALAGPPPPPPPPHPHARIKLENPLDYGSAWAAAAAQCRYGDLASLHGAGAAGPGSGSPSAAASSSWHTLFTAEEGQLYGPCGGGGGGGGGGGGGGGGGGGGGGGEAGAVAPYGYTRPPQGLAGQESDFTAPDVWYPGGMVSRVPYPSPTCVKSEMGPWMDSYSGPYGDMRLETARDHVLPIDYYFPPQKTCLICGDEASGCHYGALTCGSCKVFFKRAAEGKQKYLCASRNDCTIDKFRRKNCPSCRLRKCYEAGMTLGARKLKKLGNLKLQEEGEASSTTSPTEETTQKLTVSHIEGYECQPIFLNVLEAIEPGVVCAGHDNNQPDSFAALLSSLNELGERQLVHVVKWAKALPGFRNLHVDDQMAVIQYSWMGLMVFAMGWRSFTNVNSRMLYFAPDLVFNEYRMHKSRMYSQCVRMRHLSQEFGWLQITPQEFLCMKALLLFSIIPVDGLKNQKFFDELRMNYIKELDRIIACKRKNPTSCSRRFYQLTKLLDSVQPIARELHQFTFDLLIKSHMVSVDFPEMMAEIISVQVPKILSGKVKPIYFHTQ
Test: Competitive hAR binding assay with 3H-DHT tracer
Details: baculovirus/Sf9 hAR extract, 1 nM 3H-DHT, one hour at 4° C; mean of multiple tests; read-out: AR Binding IC50
pIC50: −log10 of the molar value.
The reader will find reported pIC50 values listed item by item below.
quantity: pIC50

In [3]: df
Out[3]:
                                smilesinput  quantity  datavalue
0  CC(=O)c1ccc(Oc2ccc(C#N)c(C(F)(F)F)c2)cc1     pIC50       6.35
1          COc1cccc(OC)c1Oc1ccc(C#N)c(Cl)c1     pIC50       6.60
2                CCc1ccccc1Oc1ccc(C#N)cc1Cl     pIC50       6.64
3    N#Cc1ccc(Oc2ccccc2[N+](=O)[O-])c(Cl)c1     pIC50       6.33
4             COc1ccc(C)cc1Oc1ccc(C#N)cc1Cl     pIC50       6.31
5       N#Cc1ccccc1Oc1ccc(C#N)c(C(F)(F)F)c1     pIC50       6.50
6                  N#Cc1ccc(Oc2ccccc2)cc1Cl     pIC50       6.83
7            N#Cc1ccc(Oc2ccc(F)cc2F)c(Cl)c1     pIC50       6.43
8     N#Cc1ccc(Oc2ccccc2C2CCCC2)cc1C(F)(F)F     pIC50       6.64
9               CCCc1ccccc1Oc1ccc(C#N)cc1Cl     pIC50       6.99
